B1: RPS21 (parent)
chain: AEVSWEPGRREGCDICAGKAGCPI

# Variants of: B1
# ASSAY DETAILS: protein stability index of a GFP-peptide fusion (GPS, HEK-293T) (PSI 1-6); higher = more stable;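 further: lentivirally expressed fusions sorted by FACS into six bins by GFP to DsRed ratio, PSI derived from sequencing read proportions per bin multiplied by bin number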
# MEASUREMENT CONTEXT: c terminus: a fixed tail appended

[
  {
    "VARIANT CODE": "G18S",
    "protein stability index": 3.63
  },
  {
    "VARIANT CODE": "A1P",
    "protein stability index": 3.8
  },
  {
    "VARIANT CODE": "G21P",
    "protein stability index": 3.35
  },
  {
    "VARIANT CODE": "E6V",
    "protein stability index": 2.66
  },
  {
    "VARIANT CODE": "A1E",
    "protein stability index": 3.49
  },
  {
    "VARIANT CODE": "W5C",
    "protein stability index": 4.24
  },
  {
    "VARIANT CODE": "S4E",
    "protein stability index": 4.2
  },
  {
    "VARIANT CODE": "E2K",
    "protein stability index": 1.92
  },
  {
    "VARIANT CODE": "E11C",
    "protein stability index": 3.22
  },
  {
    "VARIANT CODE": "I15L",
    "protein stability index": 2.43
  },
  {
    "VARIANT CODE": "C13G",
    "protein stability index": 3.88
  },
  {
    "VARIANT CODE": "E6Y",
    "protein stability index": 1.76
  },
  {
    "VARIANT CODE": "E6F",
    "protein stability index": 2.14
  },
  {
    "VARIANT CODE": "W5R",
    "protein stability index": 3.04
  },
  {
    "VARIANT CODE": "W5S",
    "protein stability index": 4.06
  },
  {
    "VARIANT CODE": "V3W",
    "protein stability index": 3.27
  },
  {
    "VARIANT CODE": "K19I",
    "protein stability index": 3.79
  },
  {
    "VARIANT CODE": "R10I",
    "protein stability index": 2.91
  },
  {
    "VARIANT CODE": "E2G",
    "protein stability index": 3.38
  },
  {
    "VARIANT CODE": "V3Y",
    "protein stability index": 3.54
  },
  {
    "VARIANT CODE": "S4V",
    "protein stability index": 3.23
  },
  {
    "VARIANT CODE": "C13V",
    "protein stability index": 5.29
  },
  {
    "VARIANT CODE": "S4A",
    "protein stability index": 4.39
  },
  {
    "VARIANT CODE": "W5M",
    "protein stability index": 3.06
  },
  {
    "VARIANT CODE": "G21N",
    "protein stability index": 2.82
  },
  {
    "VARIANT CODE": "V3S",
    "protein stability index": 3.34
  },
  {
    "VARIANT CODE": "I15H",
    "protein stability index": 4.36
  },
  {
    "VARIANT CODE": "I24G",
    "protein stability index": 3.41
  },
  {
    "VARIANT CODE": "R10T",
    "protein stability index": 3.2
  },
  {
    "VARIANT CODE": "C16D",
    "protein stability index": 3.44
  },
  {
    "VARIANT CODE": "K19G",
    "protein stability index": 3.99
  },
  {
    "VARIANT CODE": "I24Y",
    "protein stability index": 2.54
  },
  {
    "VARIANT CODE": "R10C",
    "protein stability index": 3.8
  },
  {
    "VARIANT CODE": "G21L",
    "protein stability index": 3.38
  },
  {
    "VARIANT CODE": "R10K",
    "protein stability index": 3.32
  },
  {
    "VARIANT CODE": "G8C",
    "protein stability index": 3.67
  },
  {
    "VARIANT CODE": "K19W",
    "protein stability index": 1.28
  },
  {
    "VARIANT CODE": "A17L",
    "protein stability index": 2.01
  },
  {
    "VARIANT CODE": "P23W",
    "protein stability index": 1.8
  },
  {
    "VARIANT CODE": "E11W",
    "protein stability index": 2.13
  },
  {
    "VARIANT CODE": "C22M",
    "protein stability index": 3.11
  },
  {
    "VARIANT CODE": "P23I",
    "protein stability index": 3.05
  },
  {
    "VARIANT CODE": "G21D",
    "protein stability index": 3.59
  },
  {
    "VARIANT CODE": "C22P",
    "protein stability index": 3.34
  },
  {
    "VARIANT CODE": "V3D",
    "protein stability index": 4
  },
  {
    "VARIANT CODE": "I15V",
    "protein stability index": 3.53
  },
  {
    "VARIANT CODE": "I15Y",
    "protein stability index": 3.21
  },
  {
    "VARIANT CODE": "A17P",
    "protein stability index": 3.72
  },
  {
    "VARIANT CODE": "C16R",
    "protein stability index": 4.22
  },
  {
    "VARIANT CODE": "E11L",
    "protein stability index": 2.46
  },
  {
    "VARIANT CODE": "G21C",
    "protein stability index": 2.84
  },
  {
    "VARIANT CODE": "E6M",
    "protein stability index": 2.6
  },
  {
    "VARIANT CODE": "A17R",
    "protein stability index": 2.97
  },
  {
    "VARIANT CODE": "R10Q",
    "protein stability index": 3.09
  },
  {
    "VARIANT CODE": "V3R",
    "protein stability index": 3.01
  },
  {
    "VARIANT CODE": "W5Y",
    "protein stability index": 2.91
  },
  {
    "VARIANT CODE": "P23Y",
    "protein stability index": 1.73
  },
  {
    "VARIANT CODE": "G21S",
    "protein stability index": 2.59
  },
  {
    "VARIANT CODE": "E11I",
    "protein stability index": 2.56
  },
  {
    "VARIANT CODE": "W5F",
    "protein stability index": 3.53
  },
  {
    "VARIANT CODE": "G8P",
    "protein stability index": 3.24
  },
  {
    "VARIANT CODE": "C13F",
    "protein stability index": 3.97
  },
  {
    "VARIANT CODE": "G8M",
    "protein stability index": 2.59
  },
  {
    "VARIANT CODE": "E11T",
    "protein stability index": 2.87
  },
  {
    "VARIANT CODE": "K19Q",
    "protein stability index": 2.97
  },
  {
    "VARIANT CODE": "P7R",
    "protein stability index": 2.53
  },
  {
    "VARIANT CODE": "D14N",
    "protein stability index": 2.35
  },
  {
    "VARIANT CODE": "E2C",
    "protein stability index": 2.91
  },
  {
    "VARIANT CODE": "W5L",
    "protein stability index": 3.12
  },
  {
    "VARIANT CODE": "R10G",
    "protein stability index": 2.52
  },
  {
    "VARIANT CODE": "A17H",
    "protein stability index": 3.66
  },
  {
    "VARIANT CODE": "A17C",
    "protein stability index": 3.11
  }
]
